target: Peroxisome proliferator-activated receptor alpha (Mus musculus) (UniProt P23204); assay: In vivo agonist activity at PPARalpha in high fat diet-induced nonalcoholic steatohepatitis C57BL/6J mouse model assessed as trans-repression of ApoC3 mRNA expression in liver administered at 3 mg/kg, po and measured after 24 hrs by quantitative real time PCR analysis; assay type: functional, organism-based
Sequence (P23204 whole entry): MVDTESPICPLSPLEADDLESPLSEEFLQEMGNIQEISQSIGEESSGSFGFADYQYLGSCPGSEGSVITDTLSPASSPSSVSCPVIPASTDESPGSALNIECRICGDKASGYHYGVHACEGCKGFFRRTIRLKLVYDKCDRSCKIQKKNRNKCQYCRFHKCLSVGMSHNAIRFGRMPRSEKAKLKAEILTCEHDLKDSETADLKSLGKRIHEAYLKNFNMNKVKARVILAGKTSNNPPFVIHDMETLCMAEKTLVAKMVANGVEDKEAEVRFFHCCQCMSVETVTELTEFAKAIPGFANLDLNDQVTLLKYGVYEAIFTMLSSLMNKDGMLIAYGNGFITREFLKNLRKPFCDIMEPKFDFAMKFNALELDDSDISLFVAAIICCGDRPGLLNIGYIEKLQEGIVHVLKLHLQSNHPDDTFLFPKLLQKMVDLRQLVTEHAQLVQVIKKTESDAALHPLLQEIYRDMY
Activity calls are given as the source filed them. No cut-off for these calls is given here.
Possible outcomes: Y for active, N for inactive

# smilesData, target, classification
rows = [
    ("Cc1ccc(Cn2nc(CCCc3ccc(OC(C)(C)C(=O)O)cc3)n(Cc3ccc(F)cc3)c2=O)cc1", "Peroxisome proliferator-activated receptor alpha (Mus musculus) (UniProt P23204)", "Y"),
    ("C=Cc1ccc(Cn2nc(CCCc3ccc(OC(C)(C)C(=O)O)cc3)n(Cc3ccc(C)cc3)c2=O)cc1", "Peroxisome proliferator-activated receptor alpha (Mus musculus) (UniProt P23204)", "Y"),
    ("Cc1ccc(Cn2nc(CCCc3ccc(OC(C)(C)C(=O)O)cc3)n(Cc3ccc(Cl)cc3)c2=O)cc1", "Peroxisome proliferator-activated receptor alpha (Mus musculus) (UniProt P23204)", "Y"),
    ("Cc1ccc(Cn2nc(CCCc3ccc(OC(C)(C)C(=O)O)cc3)n(Cc3ccc(C)cc3)c2=O)cc1", "Peroxisome proliferator-activated receptor alpha (Mus musculus) (UniProt P23204)", "N"),
    ("COc1cccc(Cn2c(CCCc3ccc(OC(C)(C)C(=O)O)cc3)nn(Cc3ccc(C)cc3)c2=O)c1", "Peroxisome proliferator-activated receptor alpha (Mus musculus) (UniProt P23204)", "Y"),
    ("COc1cc(Cn2c(CCCc3ccc(OC(C)(C)C(=O)O)cc3)nn(Cc3ccc(C)cc3)c2=O)cc(OC)c1OC", "Peroxisome proliferator-activated receptor alpha (Mus musculus) (UniProt P23204)", "Y"),
    ("COc1ccc(Cn2c(CCCc3ccc(OC(C)(C)C(=O)O)cc3)nn(Cc3ccc(C(C)(C)C)cc3)c2=O)cc1", "Peroxisome proliferator-activated receptor alpha (Mus musculus) (UniProt P23204)", "Y"),
    ("COc1ccc(Cn2c(CCCc3ccc(OC(C)(C)C(=O)O)cc3)nn(Cc3ccc(C)cc3)c2=O)cc1", "Peroxisome proliferator-activated receptor alpha (Mus musculus) (UniProt P23204)", "Y"),
    ("Cc1ccc(Cn2nc(CCCc3ccc(OC(C)(C)C(=O)O)cc3)n(Cc3ccccc3)c2=O)cc1", "Peroxisome proliferator-activated receptor alpha (Mus musculus) (UniProt P23204)", "Y"),
]
